This section presents molecules with their documented MIC values.
Test system: Salmonella enterica subsp. enterica typhimurium
Experiment: MIC, 20-strain panel
Assay type: cell-based
Details: F: Salmonella enterica subsp. enterica Typhimurium

>>> df
                                   molecule                               test_target  measured_attribute    result
0  O=C1CCCN1c1ccc(CN2CC[C@@H](NS(=O)(=O)c3cccc(C(F)(F)F)c3)C2)cc1 [Compound 99]  Salmonella enterica subsp. enterica typhimurium                 MIC  > 8 mg/L
1  O=S(=O)(N[C@@H]1CCN(Cc2ccc(OC3CC3)cc2)C1)c1cc(C(F)(F)F)cc(C(F)(F)F)c1 [Compound 128]  Salmonella enterica subsp. enterica typhimurium                 MIC  > 8 mg/L
2  O=S(=O)(N[C@@H]1CCN(Cc2ccc(-c3cncnc3)cc2)C1)c1cccc(OC(F)(F)F)c1 [Compound 63]  Salmonella enterica subsp. enterica typhimurium                 MIC  > 8 mg/L
3  O=S(=O)(N[C@@H]1CCN(Cc2ccc(OC3CC3)cc2)C1)c1cc(S(=O)(=O)c2ccccc2)cs1 [Compound 65]  Salmonella enterica subsp. enterica typhimurium                 MIC  > 8 mg/L
4  O=S(=O)(N[C@@H]1CCN(Cc2ccc(OC3CC3)cc2)C1)c1cc(Cl)cc(C(F)(F)F)c1 [Compound 94]  Salmonella enterica subsp. enterica typhimurium                 MIC  > 8 mg/L
5  O=S(=O)(N[C@@H]1CCN(Cc2ccc(OC3CC3)cc2)C1)c1cccc(C(F)(F)F)c1 [Compound 156]  Salmonella enterica subsp. enterica typhimurium                 MIC    4 mg/L
6  O=S(=O)(N[C@@H]1CCN(Cc2ccc(-c3ccncc3)cc2)C1)c1cccc(OC(F)(F)F)c1 [Compound 15]  Salmonella enterica subsp. enterica typhimurium                 MIC  > 8 mg/L
7  COc1cc(CN2CC[C@@H](NS(=O)(=O)c3cccc(C(F)(F)F)c3)C2)ccc1OC(C)C [Compound 42]  Salmonella enterica subsp. enterica typhimurium                 MIC  > 8 mg/L

QUERY: Checklist item: MIC tested on Salmonella enterica subsp. enterica typhimurium, entry O=S(=O)(N[C@@H]1CCN(Cc2ccc(-c3ccccc3)cc2)C1)c1cc(C(F)(F)F)ccc1F [Compound 114] , value?
RESULT: 4 mg/L
